Where these numbers come from: patent US6174877A

tested on: E. coli NHIJ JC-2; assay: Minimum inhibitory concentration (MIC) by agar dilution method; assay type: cell-based; settings: Escherichia coli, NHIJJC2; strain E. coli NHIJ JC-2; medium F-MH; 10^6 CFU/ml; 37° C. overnight; read-out: MIC (μg/ml) 10^6 CFU/ml E. coli NHIJ JC-2
test.readout: MIC (µg/mL)
One number for each entry, in µg/mL.

Below: 3 compounds and their reported MIC.
CC(Cc1cccnn1)SC1=C(C(=O)O)N2C(=O)[C@H]([C@@H](C)O)[C@H]2[C@H]1C (single isomer, unassigned; diastereomer-2) [Working Example 17]
0.1
C[C@@H](O)[C@H]1C(=O)N2C(C(=O)O)=C(SCCc3c[nH]nn3)[C@H](C)[C@H]12 [Working Example 2-3]
0.025
C[C@@H](O)[C@H]1C(=O)N2C(C(=O)O)=C(SCCN=CN)C[C@H]12 [Imipenem, reference compound]
0.1

Q: Please supply the value of reported MIC for the item C[C@@H](O)[C@H]1C(=O)N2C(C(=O)O)=C(SCCc3cn4cc(N)ccc4n3)[C@H](C)[C@H]12 [Working Example 29-2]
Ans: 0.2
